# study.system: UniProt:P35372
# Sequence (P35372 whole entry): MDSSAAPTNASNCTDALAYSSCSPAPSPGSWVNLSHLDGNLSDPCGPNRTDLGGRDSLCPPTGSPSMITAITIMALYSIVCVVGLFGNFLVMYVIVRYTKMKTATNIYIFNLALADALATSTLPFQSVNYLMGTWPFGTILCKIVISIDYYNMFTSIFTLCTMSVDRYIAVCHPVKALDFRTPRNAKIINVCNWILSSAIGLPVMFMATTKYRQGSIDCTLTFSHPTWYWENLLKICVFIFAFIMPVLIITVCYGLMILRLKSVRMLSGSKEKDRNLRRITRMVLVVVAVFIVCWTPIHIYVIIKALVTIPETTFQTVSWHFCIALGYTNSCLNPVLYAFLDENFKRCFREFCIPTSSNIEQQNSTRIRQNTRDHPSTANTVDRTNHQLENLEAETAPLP
measurement.kind: Ki
Please report the result as a number followed by the unit.

Which Ki is reported for this compound? CN(C)C1(c2ccccc2)CCC(NC(=O)N2CCC(C3C=Nc4ccc(F)cc43)CC2)CC1 (stereo not shown)
120 nM
